target: 6His-Tev-LRRK2 (1326-2527) (Homo sapiens, UniProt Q5S007)
Construct: A LRRK2 cDNA encoding residues 1326-2527 was received from Dundee University; made in house; host or cells: Spodoptera frugiperda (Sf9) insect cells, baculovirus
Sequence (Q5S007 1326-2527): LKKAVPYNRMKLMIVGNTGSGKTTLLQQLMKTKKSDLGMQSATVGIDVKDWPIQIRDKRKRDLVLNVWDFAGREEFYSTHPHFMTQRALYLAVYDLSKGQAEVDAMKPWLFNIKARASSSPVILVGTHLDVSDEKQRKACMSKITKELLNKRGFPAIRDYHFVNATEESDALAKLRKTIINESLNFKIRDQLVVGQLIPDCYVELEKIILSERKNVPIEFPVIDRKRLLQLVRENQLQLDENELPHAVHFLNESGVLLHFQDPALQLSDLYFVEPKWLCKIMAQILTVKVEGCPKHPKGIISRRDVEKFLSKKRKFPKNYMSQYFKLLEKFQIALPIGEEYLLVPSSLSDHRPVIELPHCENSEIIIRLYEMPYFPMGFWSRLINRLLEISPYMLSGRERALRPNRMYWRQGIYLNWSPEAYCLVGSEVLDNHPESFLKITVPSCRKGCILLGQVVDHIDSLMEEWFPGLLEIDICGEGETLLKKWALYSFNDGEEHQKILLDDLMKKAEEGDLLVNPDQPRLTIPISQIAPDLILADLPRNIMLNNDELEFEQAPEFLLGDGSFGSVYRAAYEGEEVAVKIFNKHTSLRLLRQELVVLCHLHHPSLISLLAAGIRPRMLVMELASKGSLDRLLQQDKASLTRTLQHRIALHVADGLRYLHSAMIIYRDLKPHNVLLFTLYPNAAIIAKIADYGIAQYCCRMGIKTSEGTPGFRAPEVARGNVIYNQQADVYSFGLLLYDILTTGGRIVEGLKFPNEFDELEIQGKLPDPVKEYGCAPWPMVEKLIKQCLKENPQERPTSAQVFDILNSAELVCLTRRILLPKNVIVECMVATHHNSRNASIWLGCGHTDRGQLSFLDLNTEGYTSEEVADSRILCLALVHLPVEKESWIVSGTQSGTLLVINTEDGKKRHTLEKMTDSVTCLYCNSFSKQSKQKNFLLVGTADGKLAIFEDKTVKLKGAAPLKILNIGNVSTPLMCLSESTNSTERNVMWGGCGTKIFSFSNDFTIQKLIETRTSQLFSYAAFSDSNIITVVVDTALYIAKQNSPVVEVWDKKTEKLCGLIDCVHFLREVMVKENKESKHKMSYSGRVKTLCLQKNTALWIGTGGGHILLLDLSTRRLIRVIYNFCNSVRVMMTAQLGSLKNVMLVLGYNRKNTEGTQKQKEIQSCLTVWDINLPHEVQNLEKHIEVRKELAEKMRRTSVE
procedureSummary: LRRK2 AlphaScreen desensitised protein substrate assay
Type: biochemical
experimentalContext: mean pIC50; GST-PS-Moesin (400-577) substrate, 2 mM ATP (excess of ATP present); read-out: LRRK2 alphascreen desensitised protein substrate assay (pIC50) (converted)
IC50 under 8000 nM gets satisfied, anything at or over 8000 nM gets not satisfied.

>  <compound>
COCCn1cc(-c2ccc(OCc3ccc(F)cc3)c(C(=O)Nc3cccnc3)c2)cn1 [Example 130]

>  <groupLabel>
satisfied

$$$$
>  <compound>
Cn1cc(-c2ccc(OCc3ccc(F)cc3)c(C(=O)Nc3ccnnc3)c2)cn1 [Example 94]

>  <groupLabel>
satisfied

$$$$
>  <compound>
Cc1nocc1NC(=O)c1cc(-c2cnn(CCN3CCOCC3)c2)ccc1OCc1ccc(F)cc1 [Example 129]

>  <groupLabel>
not satisfied

$$$$
>  <compound>
O=C(Nc1cccnc1)c1cc(C(=O)N2CCOCC2)ccc1OCc1ccc(F)cc1 [Example 127]

>  <groupLabel>
not satisfied

$$$$
>  <compound>
O=C(Nc1cccnc1)c1cc(CN2CCOCC2)ccc1OCc1ccccc1 [Example 69]

>  <groupLabel>
satisfied

$$$$

* * *

target: 6His-Tev-LRRK2 (1326-2527) (Homo sapiens, UniProt Q5S007)
Construct: A LRRK2 cDNA encoding residues 1326-2527 was received from Dundee University; made in house; host or cells: Spodoptera frugiperda (Sf9) insect cells, baculovirus
procedureSummary: LRRK2 AlphaScreen desensitised protein substrate assay
Assay type: biochemical
experimentalContext: excess of ATP present (2 mM ATP); read-out: pIC50 in the LRRK2 alphascreen desensitised protein substrate assay (converted)
Items are presented alongside their recorded IC50.

>  <compound>
COCCn1cc(-c2ccc(OCc3ccc(F)cc3)c(C(=O)Nc3cccnc3)c2)cn1 [Example 130]

>  <IC50>
≤ 20 µM

$$$$
>  <compound>
O=C(Nc1ccnnc1)c1cc(CN2CCOCC2)ccc1OCc1ccc(F)cc1 [Example 119]

>  <IC50>
≤ 20 µM

$$$$
>  <compound>
N#Cc1ccccc1COc1ccc(Br)cc1C(=O)Nc1cccnc1 [Example 23]

>  <IC50>
≤ 20 µM

$$$$
>  <compound>
O=C(Nc1ccccn1)c1cc(Br)ccc1OCc1ccccc1 [Example 22]

>  <IC50>
> 25.1 µM

$$$$
>  <compound>
O=C(Nc1cccnc1)c1cc(OC[C@H]2CCCN2)ccc1OCc1ccccc1 [Example 44]

>  <IC50>
≤ 20 µM

$$$$
>  <compound>
CN(C)CCOc1ccc(OCc2ccccc2)c(C(=O)Nc2cccnc2)c1 [Example 30]

>  <IC50>
≤ 20 µM

$$$$
>  <compound>
Cn1cc(-c2ccc(OCc3ccc(F)cc3)c(C(=O)Nc3cnoc3)c2)cn1 [Example 134]

>  <IC50>
≤ 20 µM

$$$$
>  <compound>
CNC(=O)c1cccc(NC(=O)c2cc(Br)ccc2OCc2ccccc2)c1 [Example 27]

>  <IC50>
> 25.1 µM

$$$$
>  <compound>
CC(C)c1ccc(OCc2ccccc2)c(C(=O)Nc2cccnc2)c1 [Example 1]

>  <IC50>
≤ 20 µM

$$$$
>  <compound>
O=C(Nc1ccnnc1)c1cc(-c2cn[nH]c2)ccc1OCc1ccc(F)cc1 [Example 92]

>  <IC50>
≤ 20 µM

$$$$
>  <compound>
Cc1nocc1NC(=O)c1cc(C(=O)N2CCOCC2)ccc1OCc1ccc(F)cc1 [Example 124]

>  <IC50>
> 25.1 µM

$$$$
>  <compound>
CN1CCC[C@H]1COc1ccc(OCc2ccccc2)c(C(=O)Nc2cccnc2)c1 [Example 47]

>  <IC50>
≤ 20 µM

$$$$
>  <compound>
O=C(Nc1cncc(F)c1)c1cc(Br)ccc1OCc1ccccc1 [Example 98]

>  <IC50>
> 25.1 µM

$$$$
>  <compound>
O=C(Nc1ccnnc1)c1cc(C(F)(F)F)ccc1OCc1ccc(F)cc1 [Example 132]

>  <IC50>
≤ 20 µM

$$$$
>  <compound>
Cn1cc(-c2ccc(OCc3ccc(F)cc3F)c(C(=O)Nc3cccnc3)c2)cn1 [Example 116]

>  <IC50>
≤ 20 µM

$$$$
>  <compound>
CN1CCC(Oc2ccc(OCc3ccccc3)c(C(=O)Nc3cccnc3)c2)CC1 [Example 31]

>  <IC50>
≤ 20 µM

$$$$
>  <compound>
O=C(Nc1cccnc1)c1cc(-c2ccnc(F)c2)ccc1OCc1ccccc1 [Example 104]

>  <IC50>
≤ 20 µM

$$$$
>  <compound>
COc1ccccc1COc1ccc(Br)cc1C(=O)Nc1cccnc1 [Example 21]

>  <IC50>
≤ 20 µM

$$$$
